Consider the following IC50 data for Stromelysin-1 (Homo sapiens), collected from several reports.

Give a short answer stating reported IC50 for `COCCOC(=O)N1CCN(S(=O)(=O)c2ccc(Oc3ccc4c(c3)CCCC4)nc2)[C@@H](C(=O)NO)C1` . < 50 nM

Give a short answer stating reported IC50 for `Cc1cc(CCC[C@H](CC(=O)O)C(=O)N[C@H](C(=O)N[C@H](C)c2ccccc2)C(C)(C)C)ccc1-c1ccccc1` . 101 nM

Give a short answer stating reported IC50 for O=C(CC(CCn1nnc2ccccc2c1=O)C(=O)O)c1coc2cc(OCC3CCCC3)ccc12 (single isomer, unassigned; (+)) . 5700 nM

* * *

Consider the following pIC50 data for UniProt:P08254, collected from several reports.
Lab note: report pIC50 as minus log10 of the concentration in molar units, number only.

Fill in: pIC50 on UniProt:P08254, entry O=C(CC(CCn1nnc2ccccc2c1=O)C(=O)O)c1noc2cc(OCC3CCCCC3)ccc12 (racemic) 4.92

Fill in: pIC50 on UniProt:P08254, entry O=C(CC(CCn1nnc2ccc(C(F)(F)F)cc2c1=O)C(=O)O)c1noc2cc(OCc3ccccc3)ccc12 (racemic) 5.00

Fill in: pIC50 on UniProt:P08254, entry Cc1cc(COc2ccc(S(=O)(=O)CC(C3CCOCC3)N(O)C=O)cc2)c2ccccc2n1 (stereo not shown) 5.70

Fill in: pIC50 on UniProt:P08254, entry `O=C(O)[C@H](CCC(=O)N1CCc2ccccc21)NS(=O)(=O)c1ccc(-c2ccc(N3CCCC3)cc2)cc1` 7.40

Fill in: pIC50 on UniProt:P08254, entry Cc1ccc2nnn(C[C@H]3CC[C@@H](C(=O)c4ccc(OCc5cccc(OC(F)(F)F)c5)cc4)[C@@H]3C(=O)O)c(=O)c2c1 (single isomer, unassigned) 6.04

Fill in: pIC50 on UniProt:P08254, entry COCc1cc(COc2ccc(S(=O)(=O)CC(CC3CCC(=NO)CC3)N(O)C=O)cc2)cc(C)n1 (stereo not shown) 4.68

* * *

pIC50: −log10 of the molar value.
Consider the following pIC50 data for Stromelysin-1 (Homo sapiens, UniProt P08254), collected from several reports.
So basically: pIC50 at 6 or higher? That is y. Lower than 6? That is n.

Record O=C(O)[C@@H]1[C@@H](Cn2nnc3ccc(C(F)(F)F)cc3c2=O)CC[C@H]1C(=O)c1ccc(SCc2ccc(Cl)c(Cl)c2)cc1 (single isomer, unassigned) ; criterion: pIC50 no lower than 6. Met? y

Record `O=C(NC[C@@H](C(=O)NO)N1CCCCC1)c1ccc(OCc2ccncc2)cc1` ; criterion: pIC50 no lower than 6. Met? n

Record `CN1CCN(S(=O)(=O)c2cc(F)c(Oc3ccc(F)cc3)c(F)c2)[C@@H](C(=O)NO)C1` ; criterion: pIC50 no lower than 6. Met? n

Record Cc1cccn(CC2(c3ccc(F)c(F)c3)NC(=O)NC2=O)c1=O (stereo not drawn) ; criterion: pIC50 no lower than 6. Met? n

Record CC(=O)N1CCC(C(CS(=O)(=O)c2ccc(OCc3cc(C)nc4ccccc34)cc2)N(O)C=O)CC1 (stereo not drawn) ; criterion: pIC50 no lower than 6. Met? n

Record `CCCc1ccc(C(=O)Nc2ccc(S(=O)(=O)N(Cc3cccnc3)[C@@H](C(=O)NO)C(C)C)cc2)cc1` ; criterion: pIC50 no lower than 6. Met? y

Record `O=C(O)[C@@H](CCC(=O)N1CCc2ccccc21)NS(=O)(=O)c1ccc(-c2ccc(Cl)cc2)cc1` ; criterion: pIC50 no lower than 6. Met? y

Record CC(O)(CS(=O)(=O)c1ccc(Oc2ccccc2)cc1)C(=O)NO (stereo not drawn) ; criterion: pIC50 no lower than 6. Met? y

Record O=C(CC(CCn1nnc2ccccc2c1=O)C(=O)O)c1cc2cc(OCCc3ccccc3)ccc2o1 (single isomer, unassigned; (+)) ; criterion: pIC50 no lower than 6. Met? n

Record NC(=O)c1cccc(COc2ccc3oc(C(=O)CC(CCn4nnc5ccccc5c4=O)C(=O)O)cc3c2)c1 (single isomer, unassigned; (+)) ; criterion: pIC50 no lower than 6. Met? n

* * *

Consider the following pIC50 data for Stromelysin-1 (Homo sapiens), collected from several reports.
Lab note: report pIC50 as minus log10 of the concentration in molar units, number only.

Give a short answer stating reported pIC50 for O=C(O)[C@@H]1[C@@H](Cn2nnc3ccc(C(F)(F)F)cc3c2=O)CC[C@H]1C(=O)c1ccc(OCc2cccc(N3CCOC3=O)c2)cc1 (single isomer, unassigned) . 6.40

Give a short answer stating reported pIC50 for Cc1ccc2nc(C)cc(COc3ccc(S(=O)(=O)CC(C=C4CCC(=NO)CC4)N(O)C=O)cc3)c2c1 (centres unmarked) . 5.26

Give a short answer stating reported pIC50 for Cc1cccc(COc2ccc(C(=O)[C@H]3CC[C@@H](Cn4nnc5ccc(C)cc5c4=O)[C@@H]3C(=O)O)cc2)c1 (racemic) . 5.70

Give a short answer stating reported pIC50 for Cc1cc(COc2ccc(S(=O)(=O)CC(C=C3CCSCC3)N(O)C=O)cc2)c2ccccc2n1 (centres unmarked) . 5.00

Give a short answer stating reported pIC50 for `CC(C)[C@H](NS(=O)(=O)c1ccc(-c2ccc(N3CCCC3)cc2)cc1)P(=O)(O)O` . 8.30

Give a short answer stating reported pIC50 for Cc1ccc2nc(C)cc(COc3ccc(S(=O)(=O)CC(C=C4CCOCC4)N(O)C=O)cc3)c2c1 (centres unmarked) . 5.22

Give a short answer stating reported pIC50 for Cc1cc(COc2ccc(S(=O)(=O)CC(C=C3CCN(CC(C)C)CC3)N(O)C=O)cc2)c2ccccc2n1 (centres unmarked) . 5.00

* * *

Consider the following IC50 data for Stromelysin-1 (Homo sapiens), collected from several reports.
Just the number in µM, nothing appended.

Fill in: IC50 on Stromelysin-1 (Homo sapiens), entry Cc1ccc2nc(C)cc(COc3ccc(S(=O)(=O)CC(c4ccccc4C)N(O)C=O)cc3)c2c1 (stereo not shown) 3

Fill in: IC50 on Stromelysin-1 (Homo sapiens), entry `CCCc1ccc(C(=O)Nc2ccc(S(=O)(=O)N(CCN3CCOCC3)[C@@H](C(=O)NO)C(C)C)cc2)cc1` 0.09

Fill in: IC50 on Stromelysin-1 (Homo sapiens), entry O=C(C[C@H](CCn1nnc2ccccc2c1=O)C(=O)O)c1noc2cc(OCC3CCOCC3)ccc12 (single isomer, unassigned; enantiomer 2) 12

Fill in: IC50 on Stromelysin-1 (Homo sapiens), entry C=C1CCC(C(CS(=O)(=O)c2ccc(OCc3cc(C)cc(OC)c3)cc2)N(O)C=O)CC1 (stereo not shown) 20

* * *

Consider the following IC50 data for Stromelysin-1 (Homo sapiens), collected from several reports.
Just the number in nM, nothing appended.

Fill in: IC50 on Stromelysin-1 (Homo sapiens), entry Cc1cc(COc2ccc(S(=O)(=O)CC(C3CSC(=O)N3C)N(O)C=O)cc2)c2ccccc2n1 (centres unmarked) 1900

Fill in: IC50 on Stromelysin-1 (Homo sapiens), entry O=C(O)[C@@H]1[C@@H](Cn2nnc3ccc(C(F)(F)F)cc3c2=O)CC[C@H]1C(=O)c1ccc(SCc2cccc(Cl)c2)cc1 (single isomer, unassigned) 100

Fill in: IC50 on Stromelysin-1 (Homo sapiens), entry `C[C@H](Cc1ccc(C(F)(F)F)cc1)C(=O)NC[C@@]1(C2CC2)NC(=O)NC1=O` 2840

Fill in: IC50 on Stromelysin-1 (Homo sapiens), entry O=C(O)[C@H]1[C@H](Cn2nnc3ccccc3c2=O)CC[C@@H]1C(=O)c1ccc(OCc2cccc(Cl)c2)cc1 (racemic) 2100

Fill in: IC50 on Stromelysin-1 (Homo sapiens), entry CON=C1CCC(C(CS(=O)(=O)c2ccc(OCc3cc(C)nc4ccccc34)cc2)N(O)C=O)CC1 (centres unmarked) 3000

Fill in: IC50 on Stromelysin-1 (Homo sapiens), entry Cc1cc(COc2ccc(S(=O)(=O)CC(CC3CCC(=O)CC3)N(O)C=O)cc2)c2ccccc2n1 (centres unmarked) 1500

* * *

Consider the following IC50 data for Stromelysin-1 (Homo sapiens, UniProt P08254), collected from several reports.

Give a short answer stating reported IC50 for O=C(O)[C@@H]1[C@@H](Cn2nnc3ccc(C(F)(F)F)cc3c2=O)CC[C@H]1C(=O)c1ccc(OCc2cccc(Cl)c2)cc1 (single isomer, unassigned) . 0.54 µM

Give a short answer stating reported IC50 for `COC(=O)C1=Cc2cc(O)c(O)c(O)c2CC1` . 850 µM

Give a short answer stating reported IC50 for Cc1cc(COc2ccc(S(=O)(=O)CC(CCC3=CCCC(OC=O)C3)N(O)C=O)cc2)c2ccccc2n1 (stereo not shown) . 2 µM

Give a short answer stating reported IC50 for `COCCOC(=O)N1CCN(S(=O)(=O)c2cc(F)c(Oc3ccccc3)c(F)c2)[C@@H](C(=O)NO)C1` . 0.05 to 1 µM

Give a short answer stating reported IC50 for `O=C(NO)[C@H]1CN(C(=O)Cc2ccncc2)CCN1S(=O)(=O)c1cc(F)c(Oc2ccc(Cl)cc2)c(F)c1` . 1 to 20 µM

Give a short answer stating reported IC50 for Cc1cc(Cl)cc(COc2ccc(S(=O)(=O)CC(CC3CCC(=NO)CC3)N(O)C=O)cc2)c1 (stereo not shown) . 7 µM

Give a short answer stating reported IC50 for O=C(CC(CCn1nnc2ccccc2c1=O)C(=O)O)c1cc2cc(OCCCc3ccccc3)ccc2o1 (racemic) . 39 µM
